src = ChEMBL document CHEMBL5376016

assay: Acute toxicity in zebrafish embryo assessed as hatching rate at 20 to 160 uM measured after 48 hrs post fertilization relative to control; design: species or system Danio rerio; conditions: in vivo, dose 20-160 µM
property-measured: Activity (%)
Answers are plain numbers, in %.

>>> print(df.to_string())
                                   molecule  property_measured  quantitative_readout
0  CCCCCCCCCCCC1=C(O)C(=O)C(Cc2ccccc2Br)=C(O)C1=O           Activity                 51.33
1  CCCCCCCCCCCC1=C(O)C(=O)C(Cc2cc(Cl)ccc2Cl)=C(O)C1=O           Activity                 51.33

List the reported Activity of each molecule below.
1. CCCCCCCCCCCC1=C(O)C(=O)C(Cc2ccc([N+](=O)[O-])cc2)=C(O)C1=O
2. CCCCCCCCCCCC1=C(O)C(=O)C(CC)=C(O)C1=O
3. CCCCCCCCCCCC1=C(O)C(=O)C(CCCl)=C(O)C1=O
4. CCCCCCCCCCCC1=C(O)C(=O)C(Cc2ccccc2F)=C(O)C1=O
5. C#Cc1ccccc1CC1=C(O)C(=O)C(CCCCCCCCCCC)=C(O)C1=O
6. CCCCCCCCCCCC1=C(O)C(=O)C(Cc2ccc(N(C)C)cc2)=C(O)C1=O

A.
1: 51.33; 2: 75.66; 3: 51.33; 4: 51.33; 5: 51.33; 6: 75.66

State recorded Activity for all listed molecules.
1. C#Cc1ccc(CC2=C(O)C(=O)C(CCCCCCCCCCC)=C(O)C2=O)cc1
2. CCCCCCCCCCCC1=C(O)C(=O)C(Cc2ccc(Br)cc2)=C(O)C1=O
3. CCCCCCCCCCCC1=C(O)C(=O)C(Cc2c(OC)cc(OC)cc2OC)=C(O)C1=O
4. CCCCCCCCCCCC1=C(O)C(=O)C(Cc2ccc(Cl)cc2Cl)=C(O)C1=O
5. CCCCCCCCCCCC1=C(O)C(=O)C(Cc2ccccc2C#N)=C(O)C1=O
6. CCCCCCCCCCCC1=C(O)C(=O)C(Cc2ccc(C)cc2)=C(O)C1=O
7. CCCCCCCCCCCC1=C(O)C(=O)C(Cc2ccc(C(C)C)cc2)=C(O)C1=O

A.
1. 51.33
2. 51.33
3. 75.66
4. 51.33
5. 51.33
6. 75.66
7. 75.66

Could you report Activity for every entry in the following list?
1. CCCCCCCCCCCC1=C(O)C(=O)C(Cc2ccc(Cl)c(Cl)c2)=C(O)C1=O
2. CCCCCCCCCCCC1=C(O)C(=O)C(Cc2cc(OC)c(OC)c(OC)c2)=C(O)C1=O

A.
1: 51.33; 2: 75.66
